Cited source for all entries: patent US8003659B2

Provide the reported IC50 of each item.
- SYSTEM_NAME: HCV NS3-NS4A protease (Hepatitis C virus genotype 1b, UniProt P26663)
- Sequence (P26663 1027-1208): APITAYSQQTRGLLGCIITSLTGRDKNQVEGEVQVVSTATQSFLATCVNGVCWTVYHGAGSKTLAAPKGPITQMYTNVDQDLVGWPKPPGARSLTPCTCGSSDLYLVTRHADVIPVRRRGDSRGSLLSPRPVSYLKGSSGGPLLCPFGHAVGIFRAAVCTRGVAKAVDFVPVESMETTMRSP

// below: answered compounds
// query Need IC50 of COc1ccc2c(O[C@H]3C[C@H]4C(=O)N(C)CCCC/C=C\[C@@H]5C[C@@]5(C(=O)NS(=O)(=O)C5CC5)NC(=O)N4C3)cc(-n3ccc(C(C)C)n3)nc2c1C [Compound 91f] , thanks.
// result < 1000 nM

// query Need IC50 of COc1ccc2c(O[C@H]3C[C@H]4C(=O)N(C)CCCC/C=C\[C@@H]5C[C@@]5(C(=O)NS(=O)(=O)C5CC5)NC(=O)N4C3)cc(-n3ccc(C(F)(F)F)n3)nc2c1C [Compound 91g] , thanks.
// result < 1000 nM

// query Need IC50 of COc1cc(C)c2nc(-c3nc(C(C)C)cs3)cc(O[C@H]3C[C@H]4C(=O)N(C)CCCC/C=C\[C@@H]5C[C@@]5(C(=O)NS(=O)(=O)C5(C)CC5)NC(=O)N4C3)c2c1 [Compound 56f] , thanks.
// result < 1000 nM

// query Need IC50 of COc1ccc2c(O[C@H]3C[C@H]4C(=O)N(C)CCCC/C=C\[C@@H]5C[C@@]5(C(=O)NS(=O)(=O)C5CC5)NC(=O)N4C3)cc(-c3nc(C(C)C)cs3)nc2c1C [Compound 62b] , thanks.
// result < 1000 nM

# input for lookup
// query Need IC50 of COc1ccc2c(O[C@H]3C[C@H]4C(=O)N(C)CCCC/C=C\[C@@H]5C[C@@]5(C(=O)NS(=O)(=O)C5CC5)NC(=O)N4C3)cc(-c3nc(C)cs3)nc2c1Cl , thanks.
// result < 1000 nM
